- Tested on: Neutrophils purified from human peripheral blood
- PROTOCOL_TEXT: Human Neutrophil Transwell Migration Assay
- Assay type: cell-based
- EXPERIMENTAL_CONDITIONS: conc 0.001 μg/mL; 37° C., 45 minutes; % of the maximum migration possible
PROPERTY_NAME: % Neutrophil Migration (%)
Please state the figure in %; there is no need to write the unit.

Any idea what % Neutrophil Migration came out for CC[C@H](C)C[C@H](C)CCCCCCCCC(=O)N[C@H]1C[C@@H](O)[C@@H](NCCN)NC(=O)[C@@H]2[C@@H](O)CCN2C(=O)[C@H]([C@H](O)CCNC(=O)[C@H](CCSC)NC=O)NC(=O)[C@H]([C@H](O)[C@@H](O)c2ccc(O)cc2)NC(=O)[C@@H]2C[C@@H](O)CN2C(=O)[C@H]([C@@H](C)O)NC1=O on Neutrophils purified from human peripheral blood?
−3.4

Observed % Neutrophil Migration on Neutrophils purified from human peripheral blood for CC[C@H](C)C[C@H](C)CCCCCCCCC(=O)N[C@H]1C[C@@H](O)[C@@H](NCCN)NC(=O)[C@@H]2[C@@H](O)CCN2C(=O)[C@H]([C@H](O)CCNC(=O)[C@H](CCCCN)NC(=O)[C@H](Cc2ccccc2)NC(=O)[C@H](CC(C)C)NC(=O)[C@H](CCSC)NC=O)NC(=O)[C@H]([C@H](O)[C@@H](O)c2ccc(O)cc2)NC(=O)[C@@H]2C[C@@H](O)CN2C(=O)[C@H]([C@@H](C)O)NC1=O , please.
0.9
